Where a name gives a salt, the structure may show the parent alone.
reported_metric: melting point

Before answering, review these 3 worked examples.
compound: OC1C(Cc2ccccc2)CC2CCC1N2Cc1nc2ccccc2[nH]1 (racemic)
measured: 208 to 209 °C

compound: OC1C(Cc2ccccc2)CC2CCC1N2Cc1nc2ccccc2[nH]1 (racemic) (as salt: hydrochloride)
measured: 234 to 236 °C

compound: COC1C(Cc2ccccc2)CC2CCC1N2Cc1nc2ccccc2[nH]1 (racemic) (as salt: hydrochloride)
measured: 222 to 226 °C

Fill in reported melting point for this entry: COC1C(Cc2ccccc2)CC2CCC1N2Cc1nc2ccccc2[nH]1 (racemic) 172 to 173 °C
